The origin of these recorded values is patent US5594001A.

# Test system: ACh level in the rat hippocampus
# Procedure Summary: Microdialysis, ACh levels in the rat hippocampus in vivo
# Set-up: species or system rat (male Wistar)
# Test Context: Table IV; 5 mg/kg, vehicle water
Measured Parameter: Peak, maximal % increase of ACh release over baseline (%)
Use % as the unit, but write only the number.

Qu. Can you share its Peak, maximal % increase of ACh release over baseline? I mean this compound: Fc1cc(CC2(Cc3ccnc(F)c3)c3ccccc3-c3ncccc32)ccn1 [Example 68]
Ans. 121

Qu. Reported Peak, maximal % increase of ACh release over baseline, compound Fc1cc(CC2(Cc3ccnc(F)c3)c3cccnc3-c3sccc32)ccn1 [Example 69] : ____
Ans. 44

Qu. Which Peak, maximal % increase of ACh release over baseline value is on record for O=C1N(c2ccccc2)c2ccccc2C1(Cc1ccncc1)Cc1ccncc1 [linopirdine, reference compound] ?
Ans. 50

Qu. Which Peak, maximal % increase of ACh release over baseline is listed for O=C1c2ccccc2C(Cc2ccncc2)(Cc2ccncc2)c2ccccc21 [Ex 440 U.S. Pat. No. 5,173,489, reference compound] ?
Ans. 18

Qu. Bench note: what Peak, maximal % increase of ACh release over baseline did Fc1cc(CC2(Cc3ccncc3)c3ccccc3-c3sccc32)ccn1 (stereo not drawn) [Example 7] show?
Ans. 53

Qu. Given Fc1cc(CC2(Cc3ccncc3)c3ccccc3-c3ncccc32)ccn1 (stereo not drawn) [Example 62] , state its recorded Peak, maximal % increase of ACh release over baseline.
Ans. 47
